Data provenance is paper PMC12135066.

- measurement_notes: in vivo
- run_parameters: female, CD1/nude, mouse, 5 MBq (0.5 nmol), total radioactivity, Pancreas
Each entry below carries its recorded tissue uptake at 24 h.
Give your result in %ID/g as a bare value.

INSERT INTO assay_data (molecule, quantity_measured, reported) VALUES
  ('CC(C)C[C@H](NC(=O)[C@H](Cc1ccc(O)cc1)NC(=O)[C@@H](CCCNC(=N)N)NC(=O)[C@@H](CO)NC(=O)[C@H](Cc1ccccc1)NC(=O)[C@H](CC1CCCCC1)NC(=O)[C@H](CC(=O)O)NC(=O)[C@H](CCCCNC(=O)CCOCCOCCOCCOCCNC(=O)c1ccc(CNC(=O)CCCc2ccc(I)cc2)cc1)NC(=O)CN1CCN(CC(=O)O)CCN(CC(=O)O)CCN(CC(=O)O)CC1)C(=O)N[C@@H](Cc1c[nH]c2ccccc12)C(=O)N[C@@H](CO)C(N)=O [[^177Lu]Lu-uPAR-03, metal not drawn]', 'tissue uptake at 24 h', 1.9);

Give the value of tissue uptake at 24 h reported for the following: CC(C)C[C@H](NC(=O)[C@H](Cc1ccc(O)cc1)NC(=O)[C@@H](CCCNC(=N)N)NC(=O)[C@@H](CO)NC(=O)[C@H](Cc1ccccc1)NC(=O)[C@H](CC1CCCCC1)NC(=O)[C@H](CC(=O)O)NC(=O)[C@H](CCCCNC(=O)CCOCCOCCOCCOCCNC(=O)CCCc1ccc(I)cc1)NC(=O)CN1CCN(CC(=O)O)CCN(CC(=O)O)CCN(CC(=O)O)CC1)C(=O)N[C@@H](Cc1c[nH]c2ccccc12)C(=O)N[C@@H](CO)C(N)=O [[^177Lu]Lu-uPAR-02, metal not drawn]
0.92

###

- measurement_notes: in vivo
- run_parameters: female, CD1/nude (Crl:CD1-Foxn nu), mouse, 0.5 nmol, total radioactivity, HEK-uPAR xgft
quantity_measured: tissue uptake at 24 h

Give the value of tissue uptake at 24 h reported for the following: CC(C)C[C@H](NC(=O)[C@H](Cc1ccc(O)cc1)NC(=O)[C@@H](CCCNC(=N)N)NC(=O)[C@@H](CO)NC(=O)[C@H](Cc1ccccc1)NC(=O)[C@H](CC1CCCCC1)NC(=O)[C@H](CC(=O)O)NC(=O)[C@H](CCCCNC(=O)CCOCCOCCOCCOCCNC(=O)CCCc1ccc(I)cc1)NC(=O)CN1CCN(CC(=O)O)CCN(CC(=O)O)CCN(CC(=O)O)CC1)C(=O)N[C@@H](Cc1c[nH]c2ccccc12)C(=O)N[C@@H](CO)C(N)=O [[^177Lu]Lu-uPAR-02, metal not drawn]
10 %ID/g

###

Each entry below carries its recorded pKd.
- experimental_target: human uPAR (Homo sapiens)
- Construct: host or cells: HEK cells (HEK-uPAR)
- Sequence (Q03405 23-335): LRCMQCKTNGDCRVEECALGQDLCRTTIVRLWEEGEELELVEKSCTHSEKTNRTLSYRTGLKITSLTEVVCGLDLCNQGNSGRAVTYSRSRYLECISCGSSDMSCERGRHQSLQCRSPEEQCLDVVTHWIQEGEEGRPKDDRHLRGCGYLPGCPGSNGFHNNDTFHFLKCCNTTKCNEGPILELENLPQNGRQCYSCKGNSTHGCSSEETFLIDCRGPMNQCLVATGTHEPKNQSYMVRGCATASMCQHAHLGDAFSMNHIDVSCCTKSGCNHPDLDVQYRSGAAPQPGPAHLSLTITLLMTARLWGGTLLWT
- measurement_notes: uPAR-binding affinity (KD values), saturation experiments with HEK-uPAR cells
- run_parameters: saturation binding on HEK-uPAR cells, on ice (4 °C) 1 h, 1–1600 nM radiopeptide, ± AE105 40 µM; γ-counter; nonlinear regression; average ± SD, n=3
- Protocol: To determine the uPAR-binding affinity of the radiopeptides, saturation experiments were performed using HEK-uPAR cells in 48-well plates (Supporting Information). […] After rinsing the cells with PBS, they were lysed with an aqueous NaOH solution (1 M, 600 μL), transferred to radioimmunoassay tubes, and measured in a γ-counter (1480 Wizard, PerkinElmer). […] The results were expressed as average ± SD of n = 3 independently performed experiments. […]
Scale: pKd equals -log10([C]), with [C] in mol/L.

Give the value of pKd reported for the following: CC(C)C[C@H](NC(=O)[C@H](Cc1ccc(O)cc1)NC(=O)[C@@H](CCCNC(=N)N)NC(=O)[C@@H](CO)NC(=O)[C@H](Cc1ccccc1)NC(=O)[C@H](CC1CCCCC1)NC(=O)[C@H](CC(=O)O)NC(=O)[C@H](CCCCNC(=O)CCOCCOCCOCCOCCNC(=O)c1ccc(CNC(=O)CCCc2ccc(I)cc2)cc1)NC(=O)CN1CCN(CC(=O)O)CCN(CC(=O)O)CCN(CC(=O)O)CC1)C(=O)N[C@@H](Cc1c[nH]c2ccccc12)C(=O)N[C@@H](CO)C(N)=O [[^177Lu]Lu-uPAR-03, metal not drawn]
7.25

Give the value of pKd reported for the following: CC(C)C[C@H](NC(=O)[C@H](Cc1ccc(O)cc1)NC(=O)[C@@H](CCCNC(=N)N)NC(=O)[C@@H](CO)NC(=O)[C@H](Cc1ccccc1)NC(=O)[C@H](CC1CCCCC1)NC(=O)[C@H](CC(=O)O)NC(=O)CN1CCN(CC(=O)O)CCN(CC(=O)O)CCN(CC(=O)O)CC1)C(=O)N[C@@H](Cc1c[nH]c2ccccc12)C(=O)N[C@@H](CO)C(N)=O [[^177Lu]Lu-DOTA-AE105, metal not drawn, reference compound]
7.70

Give the value of pKd reported for the following: CC(C)C[C@H](NC(=O)[C@H](Cc1ccc(O)cc1)NC(=O)[C@@H](CCCNC(=N)N)NC(=O)[C@@H](CO)NC(=O)[C@H](Cc1ccccc1)NC(=O)[C@H](CC1CCCCC1)NC(=O)[C@H](CC(=O)O)NC(=O)CCOCCOCCOCCOCCNC(=O)[C@H](CCCCNC(=O)CCCc1ccc(I)cc1)NC(=O)CN1CCN(CC(=O)O)CCN(CC(=O)O)CCN(CC(=O)O)CC1)C(=O)N[C@@H](Cc1c[nH]c2ccccc12)C(=O)N[C@@H](CO)C(N)=O [[^177Lu]Lu-uPAR-05, metal not drawn]
8.00
